- assay.explanation: Solubility of the compound in aqueous buffer at pH 3.2
- Format: physicochemical
readout.name: solubility

Prompt: Determine from records and report solubility for N#Cc1cc(S(=O)(=O)Nc2ncns2)ccc1Oc1ccc(-c2cccc(C(F)(F)F)c2)cc1-c1ccnc(CNCCC2CCNCC2)c1
Completion: > 906 µg/mL

* * *

- assay.explanation: Intrinsic clearance in human hepatocytes assessed per million cells
- Assay type: ADME, cell-based, Hepatocyte
- experimental.setup: read-out: CLH
readout.name: hepatocyte CLint (µL/min/1e6 cells)
Write it as a number; the unit µL/min/1e6 cells goes unstated.

Prompt: Answer with the recorded hepatocyte CLint for the compound listed here: N#Cc1cc(S(=O)(=O)Nc2ncns2)ccc1Oc1ccc(-c2cccc(C(F)(F)F)c2)cc1-c1ccnc(CNCCC2CCNCC2)c1
Completion: 6.5

* * *

- target: Sodium channel protein type 2 subunit alpha (Homo sapiens)
- Sequence (Q99250 whole entry): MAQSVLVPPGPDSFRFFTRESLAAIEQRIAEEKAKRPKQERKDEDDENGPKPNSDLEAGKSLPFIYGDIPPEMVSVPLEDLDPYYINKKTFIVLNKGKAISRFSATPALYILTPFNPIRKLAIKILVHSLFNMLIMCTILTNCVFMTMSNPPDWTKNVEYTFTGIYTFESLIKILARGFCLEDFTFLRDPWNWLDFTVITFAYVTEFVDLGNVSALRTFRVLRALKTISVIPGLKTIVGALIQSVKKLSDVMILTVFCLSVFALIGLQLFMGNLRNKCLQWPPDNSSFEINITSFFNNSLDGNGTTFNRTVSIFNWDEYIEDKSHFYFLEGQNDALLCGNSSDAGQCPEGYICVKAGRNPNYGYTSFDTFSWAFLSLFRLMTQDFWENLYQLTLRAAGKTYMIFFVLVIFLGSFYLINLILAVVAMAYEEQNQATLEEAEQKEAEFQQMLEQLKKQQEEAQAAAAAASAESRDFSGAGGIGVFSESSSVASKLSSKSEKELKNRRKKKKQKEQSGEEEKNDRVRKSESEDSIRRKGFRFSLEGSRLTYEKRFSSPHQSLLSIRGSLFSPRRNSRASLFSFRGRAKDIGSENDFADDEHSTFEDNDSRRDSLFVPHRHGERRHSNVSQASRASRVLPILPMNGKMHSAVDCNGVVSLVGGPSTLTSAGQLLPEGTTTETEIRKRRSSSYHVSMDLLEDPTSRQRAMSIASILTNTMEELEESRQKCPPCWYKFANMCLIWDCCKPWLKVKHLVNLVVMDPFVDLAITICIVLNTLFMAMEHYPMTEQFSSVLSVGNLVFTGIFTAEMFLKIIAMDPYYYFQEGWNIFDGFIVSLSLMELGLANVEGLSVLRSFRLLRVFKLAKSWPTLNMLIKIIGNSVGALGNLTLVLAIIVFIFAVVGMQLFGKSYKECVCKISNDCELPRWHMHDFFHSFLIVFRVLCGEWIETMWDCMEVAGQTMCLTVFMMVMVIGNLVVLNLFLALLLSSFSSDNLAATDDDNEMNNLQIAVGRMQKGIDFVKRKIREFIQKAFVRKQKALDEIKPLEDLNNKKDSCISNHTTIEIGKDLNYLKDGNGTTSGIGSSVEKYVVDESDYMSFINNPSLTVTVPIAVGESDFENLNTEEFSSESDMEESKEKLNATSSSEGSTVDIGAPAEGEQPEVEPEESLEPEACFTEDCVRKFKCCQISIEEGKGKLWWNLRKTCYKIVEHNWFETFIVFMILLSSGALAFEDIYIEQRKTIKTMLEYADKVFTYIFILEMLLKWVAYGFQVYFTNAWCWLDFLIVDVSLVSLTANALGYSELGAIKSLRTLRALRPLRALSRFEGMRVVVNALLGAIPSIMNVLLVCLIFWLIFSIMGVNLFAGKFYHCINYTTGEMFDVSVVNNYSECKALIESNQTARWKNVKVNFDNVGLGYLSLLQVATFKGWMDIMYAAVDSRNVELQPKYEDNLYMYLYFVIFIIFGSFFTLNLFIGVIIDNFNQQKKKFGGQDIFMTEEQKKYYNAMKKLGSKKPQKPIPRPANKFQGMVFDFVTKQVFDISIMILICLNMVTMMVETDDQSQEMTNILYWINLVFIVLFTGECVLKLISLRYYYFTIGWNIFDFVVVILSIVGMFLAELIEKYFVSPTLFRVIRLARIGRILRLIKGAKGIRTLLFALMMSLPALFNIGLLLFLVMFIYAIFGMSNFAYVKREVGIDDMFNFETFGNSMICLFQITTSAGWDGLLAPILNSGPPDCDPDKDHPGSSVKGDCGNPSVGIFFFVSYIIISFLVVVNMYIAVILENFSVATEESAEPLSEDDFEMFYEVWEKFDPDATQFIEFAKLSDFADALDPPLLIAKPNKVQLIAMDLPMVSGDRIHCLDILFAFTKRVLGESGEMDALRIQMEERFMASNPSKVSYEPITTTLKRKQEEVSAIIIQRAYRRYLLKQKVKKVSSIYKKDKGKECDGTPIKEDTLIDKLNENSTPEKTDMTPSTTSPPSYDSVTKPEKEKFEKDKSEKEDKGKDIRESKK
- assay.explanation: Inhibition of human Nav1.2 expressed in HEK cells by patch clamp electrophysiology method
pIC50: −log10 of the molar value.
readout.name: pIC50

Prompt: Specify pIC50 for N#Cc1cc(S(=O)(=O)Nc2ncns2)ccc1Oc1ccc(-c2cccc(C(F)(F)F)c2)cc1-c1ccnc(CNCCC2CCNCC2)c1 and stop.
Completion: 8.52 to 8.60

* * *

- assay.explanation: Protein binding in dog plasma assessed as fraction unbound at 2 uM
- Assay type: ADME, cell-free, Canis lupus familiaris
readout.name: fraction unbound at 2 µM
Field format: numeric only.

Prompt: Specify fraction unbound at 2 µM for N#Cc1cc(S(=O)(=O)Nc2ncns2)ccc1Oc1ccc(-c2cccc(C(F)(F)F)c2)cc1-c1ccnc(CNCCC2CCNCC2)c1 and stop.
Completion: 0.003

* * *

- target: UniProtKB P10635
- Sequence (P10635 whole entry): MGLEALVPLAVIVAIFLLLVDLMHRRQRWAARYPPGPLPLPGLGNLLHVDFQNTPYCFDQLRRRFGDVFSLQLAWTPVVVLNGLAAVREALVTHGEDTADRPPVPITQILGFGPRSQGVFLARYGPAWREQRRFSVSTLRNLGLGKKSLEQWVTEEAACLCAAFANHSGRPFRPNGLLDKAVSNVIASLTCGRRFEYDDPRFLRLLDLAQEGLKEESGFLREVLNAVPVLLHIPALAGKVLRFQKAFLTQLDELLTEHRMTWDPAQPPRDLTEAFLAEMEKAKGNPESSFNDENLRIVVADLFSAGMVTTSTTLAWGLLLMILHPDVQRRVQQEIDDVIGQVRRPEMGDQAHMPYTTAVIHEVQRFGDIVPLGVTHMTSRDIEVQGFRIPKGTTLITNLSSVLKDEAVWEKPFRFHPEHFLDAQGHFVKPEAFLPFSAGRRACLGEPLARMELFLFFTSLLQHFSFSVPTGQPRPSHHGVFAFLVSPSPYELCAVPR
- assay.explanation: Inhibition of CYP2D6 (unknown origin)
- Assay type: ADME
readout.name: IC50 (µM)
Give the quantity in µM, number only.

Prompt: Name the recorded IC50 of the item N#Cc1cc(S(=O)(=O)Nc2ncns2)ccc1Oc1ccc(-c2cccc(C(F)(F)F)c2)cc1-c1ccnc(CNCCC2CCNCC2)c1 in your answer.
Completion: 8.83

* * *

- target: Sodium channel protein type 4 subunit alpha (Homo sapiens)
- assay.explanation: Inhibition of human Nav1.4 expressed in HEK cells by patch clamp electrophysiology method
readout.name: IC50 (µM)
Write the answer as a number in µM, unit excluded.

Prompt: Fill in reported IC50 for this entry: N#Cc1cc(S(=O)(=O)Nc2ncns2)ccc1Oc1ccc(-c2cccc(C(F)(F)F)c2)cc1-c1ccnc(CNCCC2CCNCC2)c1
Completion: 1.45

* * *

- target: Voltage-gated inwardly rectifying potassium channel KCNH2 (Homo sapiens, UniProt Q12809)
- assay.explanation: Inhibition of human ERG by PatchXpress electrophysiology method
pIC50: −log10 of the molar value.
readout.name: pIC50

Prompt: Complete the entry with pIC50 for N#Cc1cc(S(=O)(=O)Nc2ncns2)ccc1Oc1ccc(-c2cccc(C(F)(F)F)c2)cc1-c1ccnc(CNCCC2CCNCC2)c1
Completion: < 4.60

* * *

- assay.explanation: Renal clearance in dog at 0.3 mg/kg, iv via infusion for 0.5 hrs
- Assay type: ADME, organism-based, Canis lupus familiaris, Kidney
- experimental.setup: in vivo
readout.name: CL renal at 0.5 h (mL/day/kg)
Give the value, in units of mL/day/kg, as a plain number.

Prompt: Tell me CL renal at 0.5 h reported for N#Cc1cc(S(=O)(=O)Nc2ncns2)ccc1Oc1ccc(-c2cccc(C(F)(F)F)c2)cc1-c1ccnc(CNCCC2CCNCC2)c1
Completion: 1.73

* * *

- target: monoamine oxidase (Homo sapiens, UniProt P21397+P27338)
- assay.explanation: Inhibition of monoamine oxidase (unknown origin) at 10 uM relative to control
- Format: protein assay
readout.name: inhibition at 10 µM (%)
Record the value in %, omitting the unit from your answer.

Prompt: Answer with the recorded inhibition at 10 µM of N#Cc1cc(S(=O)(=O)Nc2ncns2)ccc1Oc1ccc(-c2cccc(C(F)(F)F)c2)cc1-c1ccnc(CNCCC2CCNCC2)c1 only.
Completion: 16

* * *

- assay.explanation: Intrinsic clearance in rat liver microsomes
- Assay type: ADME, microsome
- experimental.setup: read-out: CLH
readout.name: microsomal CLint

Prompt: Provide measured microsomal CLint value, entry: N#Cc1cc(S(=O)(=O)Nc2ncns2)ccc1Oc1ccc(-c2cccc(C(F)(F)F)c2)cc1-c1ccnc(CNCCC2CCNCC2)c1
Completion: < 14.1 µL/min/mg

* * *

- assay.explanation: Displacement of [3H]diltiazem from L-type calcium channel diltiazem binding site in rat brain after 120 mins by scintillation counting method
readout.name: pIC50
// field semantics: pIC50 = negative decimal log of concentration (mol/L)

Prompt: Supply pIC50 value. Item: N#Cc1cc(S(=O)(=O)Nc2ncns2)ccc1Oc1ccc(-c2cccc(C(F)(F)F)c2)cc1-c1ccnc(CNCCC2CCNCC2)c1
Completion: 5.28

* * *

- assay.explanation: Inhibition of sodium channel site2 (unknown origin) by radioligand binding assay relative to control
- Parameters: species or system Homo sapiens
readout.name: Ki (nM)
Report the figure in nM without appending any unit label.

Prompt: Give Ki for N#Cc1cc(S(=O)(=O)Nc2ncns2)ccc1Oc1ccc(-c2cccc(C(F)(F)F)c2)cc1-c1ccnc(CNCCC2CCNCC2)c1
Completion: 43

* * *

- target: High affinity choline transporter 1 (Homo sapiens, UniProt Q9GZV3)
- Sequence (Q9GZV3 whole entry): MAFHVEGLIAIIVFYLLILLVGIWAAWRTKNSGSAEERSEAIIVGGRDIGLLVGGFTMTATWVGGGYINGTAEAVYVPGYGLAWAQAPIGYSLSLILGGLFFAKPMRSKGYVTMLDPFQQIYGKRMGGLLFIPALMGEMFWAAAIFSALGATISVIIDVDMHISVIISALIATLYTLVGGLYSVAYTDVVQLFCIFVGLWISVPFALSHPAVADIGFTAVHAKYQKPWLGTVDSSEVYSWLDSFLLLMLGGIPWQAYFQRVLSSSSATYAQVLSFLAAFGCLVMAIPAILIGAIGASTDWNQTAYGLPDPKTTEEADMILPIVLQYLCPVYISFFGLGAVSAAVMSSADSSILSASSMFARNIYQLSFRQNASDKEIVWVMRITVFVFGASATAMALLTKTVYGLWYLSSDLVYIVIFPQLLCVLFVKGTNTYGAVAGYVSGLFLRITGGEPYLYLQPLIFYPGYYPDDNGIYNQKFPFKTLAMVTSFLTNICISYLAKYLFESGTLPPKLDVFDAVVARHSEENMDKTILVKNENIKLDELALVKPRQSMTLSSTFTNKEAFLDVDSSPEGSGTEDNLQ
- assay.explanation: Displacement of [3H]hemicholinium-3 from recombinant human choline transporter after 60 mins by scintillation counting method
readout.name: Ki
I'd appreciate it if you included the unit after the number.

Prompt: Answer with the recorded Ki for the compound listed here: N#Cc1cc(S(=O)(=O)Nc2ncns2)ccc1Oc1ccc(-c2cccc(C(F)(F)F)c2)cc1-c1ccnc(CNCCC2CCNCC2)c1
Completion: 68 nM

* * *

- assay.explanation: Solubility of the compound in aqueous buffer at pH 4.2
- Type: physicochemical
readout.name: solubility

smiles.entry: N#Cc1cc(S(=O)(=O)Nc2ncns2)ccc1Oc1ccc(-c2cccc(C(F)(F)F)c2)cc1-c1ccnc(CNCCC2CCNCC2)c1
solubility: > 1170 µg/mL

Prompt: Assign solubility to the following record: NCc1cc(-c2cc(-c3cccc(C(F)(F)F)c3)ccc2Oc2cc(F)c(S(=O)(=O)Nc3nncs3)cc2Cl)ccn1
Completion: < 0.5 µg/mL

* * *

- target: Sodium channel protein type 9 subunit alpha (Homo sapiens, UniProt Q15858)
- Sequence (Q15858 whole entry): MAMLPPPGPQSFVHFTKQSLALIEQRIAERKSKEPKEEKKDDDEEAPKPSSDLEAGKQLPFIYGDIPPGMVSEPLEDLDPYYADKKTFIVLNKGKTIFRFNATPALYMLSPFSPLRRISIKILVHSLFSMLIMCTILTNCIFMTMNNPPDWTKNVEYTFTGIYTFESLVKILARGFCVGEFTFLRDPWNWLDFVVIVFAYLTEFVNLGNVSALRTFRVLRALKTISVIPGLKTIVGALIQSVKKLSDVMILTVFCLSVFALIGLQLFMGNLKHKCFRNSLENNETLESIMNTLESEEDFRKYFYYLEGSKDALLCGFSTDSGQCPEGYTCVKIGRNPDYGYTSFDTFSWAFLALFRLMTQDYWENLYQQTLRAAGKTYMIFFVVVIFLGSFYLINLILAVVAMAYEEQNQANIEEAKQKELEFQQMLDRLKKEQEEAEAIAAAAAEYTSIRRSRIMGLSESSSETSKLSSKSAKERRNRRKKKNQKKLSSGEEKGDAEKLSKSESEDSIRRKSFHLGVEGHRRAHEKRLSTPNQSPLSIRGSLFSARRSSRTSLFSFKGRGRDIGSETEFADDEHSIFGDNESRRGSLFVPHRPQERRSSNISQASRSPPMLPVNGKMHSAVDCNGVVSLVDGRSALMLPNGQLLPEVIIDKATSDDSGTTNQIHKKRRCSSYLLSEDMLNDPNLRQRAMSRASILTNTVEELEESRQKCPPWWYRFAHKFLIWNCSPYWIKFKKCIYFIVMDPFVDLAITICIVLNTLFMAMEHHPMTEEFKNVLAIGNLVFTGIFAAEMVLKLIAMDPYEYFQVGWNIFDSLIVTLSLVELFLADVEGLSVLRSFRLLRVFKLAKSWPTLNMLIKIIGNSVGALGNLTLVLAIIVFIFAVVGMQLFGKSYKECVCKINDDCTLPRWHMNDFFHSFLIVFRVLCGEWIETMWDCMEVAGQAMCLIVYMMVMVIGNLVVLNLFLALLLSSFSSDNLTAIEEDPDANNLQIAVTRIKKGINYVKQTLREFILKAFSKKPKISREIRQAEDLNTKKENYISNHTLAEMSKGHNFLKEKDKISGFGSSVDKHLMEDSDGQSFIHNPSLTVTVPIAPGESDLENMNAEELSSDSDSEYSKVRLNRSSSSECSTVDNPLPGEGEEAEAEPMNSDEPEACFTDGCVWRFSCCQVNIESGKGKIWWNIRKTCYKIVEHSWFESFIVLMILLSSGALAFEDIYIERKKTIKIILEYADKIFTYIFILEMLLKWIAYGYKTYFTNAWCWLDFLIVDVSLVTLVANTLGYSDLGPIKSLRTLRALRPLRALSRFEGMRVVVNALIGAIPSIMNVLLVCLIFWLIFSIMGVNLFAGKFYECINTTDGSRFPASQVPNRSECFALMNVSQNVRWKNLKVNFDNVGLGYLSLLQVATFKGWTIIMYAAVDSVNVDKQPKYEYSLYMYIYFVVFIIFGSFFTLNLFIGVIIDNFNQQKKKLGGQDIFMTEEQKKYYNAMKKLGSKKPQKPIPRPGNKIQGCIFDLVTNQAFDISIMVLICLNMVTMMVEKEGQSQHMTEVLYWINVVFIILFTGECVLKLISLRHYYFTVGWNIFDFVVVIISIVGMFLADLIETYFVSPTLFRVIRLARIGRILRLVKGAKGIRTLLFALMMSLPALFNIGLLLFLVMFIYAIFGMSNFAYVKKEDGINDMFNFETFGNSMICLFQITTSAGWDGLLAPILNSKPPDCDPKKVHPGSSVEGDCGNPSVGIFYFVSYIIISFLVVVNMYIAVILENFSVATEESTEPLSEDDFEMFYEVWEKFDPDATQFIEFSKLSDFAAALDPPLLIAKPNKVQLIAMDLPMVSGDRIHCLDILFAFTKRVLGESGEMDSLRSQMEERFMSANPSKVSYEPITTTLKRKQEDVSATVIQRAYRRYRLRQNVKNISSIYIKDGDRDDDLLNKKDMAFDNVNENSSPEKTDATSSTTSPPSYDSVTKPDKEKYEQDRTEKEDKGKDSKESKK
- assay.explanation: Inhibition of human Nav1.7 expressed in HEK cells by automated patchXpress electrophysiology method
- Assay type: cell-based
Reported IC50 values follow for various compounds
Reply numerically in nM, unit not repeated.

Some solved entries appear below for comparison.
smiles.entry: N#Cc1cc(S(=O)(=O)Nc2ncns2)ccc1Oc1ccc(Cl)cc1-c1cccc(CNCCC2CCNCC2)c1
target: Sodium channel protein type 9 subunit alpha (Homo sapiens, UniProt Q15858)
value.units: nM
IC50: 0.7

smiles.entry: O=S(=O)(Nc1nncs1)c1cc(Cl)c(Oc2ccc(Cl)cc2-c2ccnc(CN3CCC3)c2)cc1F
target: Sodium channel protein type 9 subunit alpha (Homo sapiens, UniProt Q15858)
value.units: nM
IC50: 4.8

smiles.entry: O=S(=O)(Nc1cscn1)c1cc(Cl)c(Oc2ccc(Cl)cc2-c2ccnc(CN3CCC3)c2)cc1F
target: Sodium channel protein type 9 subunit alpha (Homo sapiens, UniProt Q15858)
value.units: nM
IC50: 13.2

Prompt: Item N#Cc1cc(S(=O)(=O)Nc2ncns2)ccc1Oc1ccc(Cl)cc1-c1cccc(CN)c1 : provide IC50
Completion: 8.5

* * *

- assay.explanation: Solubility of the compound in aqueous buffer at pH 7.1
- Type: physicochemical
readout.name: solubility

Prompt: Give me measured solubility, please, for this compound: N#Cc1cc(S(=O)(=O)Nc2ncns2)ccc1Oc1ccc(-c2cccc(C(F)(F)F)c2)cc1-c1ccnc(CNCCC2CCNCC2)c1
Completion: > 2570 µg/mL

* * *

- assay.explanation: Intrinsic clearance in dog hepatocytes assessed per million cells
- Format: ADME, cell-based, Canis lupus familiaris, Hepatocyte
- experimental.setup: read-out: CLH
readout.name: hepatocyte CLint

Prompt: Output hepatocyte CLint of N#Cc1cc(S(=O)(=O)Nc2ncns2)ccc1Oc1ccc(-c2cccc(C(F)(F)F)c2)cc1-c1ccnc(CNCCC2CCNCC2)c1
Completion: < 6 µL/min/1e6 cells

* * *

- target: Cytochrome P450 2C8 (Homo sapiens)
- Sequence (P10632 whole entry): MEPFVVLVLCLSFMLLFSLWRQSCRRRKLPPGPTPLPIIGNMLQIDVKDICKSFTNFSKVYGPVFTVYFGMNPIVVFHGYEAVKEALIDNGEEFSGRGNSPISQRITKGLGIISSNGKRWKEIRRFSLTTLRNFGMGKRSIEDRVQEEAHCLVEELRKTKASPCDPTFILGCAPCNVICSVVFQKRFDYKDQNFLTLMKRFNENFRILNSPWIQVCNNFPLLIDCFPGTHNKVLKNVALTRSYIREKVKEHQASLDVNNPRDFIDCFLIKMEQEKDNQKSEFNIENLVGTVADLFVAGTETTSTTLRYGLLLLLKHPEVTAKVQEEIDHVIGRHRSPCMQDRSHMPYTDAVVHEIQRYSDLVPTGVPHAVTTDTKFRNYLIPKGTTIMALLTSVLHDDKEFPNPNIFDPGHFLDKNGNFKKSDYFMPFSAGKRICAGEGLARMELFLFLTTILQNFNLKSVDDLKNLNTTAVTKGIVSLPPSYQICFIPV
readout.name: pIC50
Note: pIC50 values are expressed as the negative base-10 logarithm of concentration in M.

Prompt: Consider the compound N#Cc1cc(S(=O)(=O)Nc2ncns2)ccc1Oc1ccc(-c2cccc(C(F)(F)F)c2)cc1-c1ccnc(CNCCC2CCNCC2)c1 and give its recorded pIC50.
Completion: 5.21

Each recorded value in this set is attributed to ChEMBL document CHEMBL4177603.
